# Target system: CDK7/cyclin H (Homo sapiens, UniProt P50613)
# Sequence (P50613 whole entry, species assumed): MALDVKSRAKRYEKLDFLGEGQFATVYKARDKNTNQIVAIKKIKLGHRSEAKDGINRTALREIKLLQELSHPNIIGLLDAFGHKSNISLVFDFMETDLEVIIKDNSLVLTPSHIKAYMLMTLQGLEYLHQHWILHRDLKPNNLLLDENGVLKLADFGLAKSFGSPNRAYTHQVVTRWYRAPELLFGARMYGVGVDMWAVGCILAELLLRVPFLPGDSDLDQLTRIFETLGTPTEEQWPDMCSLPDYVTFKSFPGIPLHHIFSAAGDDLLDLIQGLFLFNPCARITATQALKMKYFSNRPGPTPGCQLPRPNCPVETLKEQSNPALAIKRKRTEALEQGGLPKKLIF
# Sequence (P51946 whole entry partner, species assumed): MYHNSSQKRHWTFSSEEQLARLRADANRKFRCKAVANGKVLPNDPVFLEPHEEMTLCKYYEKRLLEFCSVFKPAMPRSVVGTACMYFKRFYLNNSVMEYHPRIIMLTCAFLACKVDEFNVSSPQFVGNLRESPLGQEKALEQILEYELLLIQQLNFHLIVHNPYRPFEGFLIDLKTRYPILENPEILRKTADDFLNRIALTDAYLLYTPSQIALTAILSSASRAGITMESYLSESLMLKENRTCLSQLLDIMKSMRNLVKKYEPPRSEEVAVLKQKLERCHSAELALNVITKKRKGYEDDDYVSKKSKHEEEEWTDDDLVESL
# Assay explanation: CDK7 enzyme activity inhibition
# Assay type: biochemical
# Condition label: compound 100 nM; read-out: CDK7/Cyc H inhibition rate % 100 nM
The reader will find reported inhibition at 0.1 µM values listed item by item below.
API: value field is a number in %; no unit string.

Guide cases for inhibition at 0.1 µM, answers given:
Given the entry CC(=O)N[C@H]1CC[C@@H](NC(=O)Nc2cc(-c3cnn4c3CC(C)(C)C4)c(Cl)cn2)CC1 , report its measured inhibition at 0.1 µM.
44

Repeat for the following molecule: COc1cc(F)ccc1-c1ccnc(NC(=O)N[C@H]2CC[C@H](N)CC2)c1
-3.8

CC(=O)N[C@H]1CC[C@H](NC(=O)Nc2cc(-c3cnn4c3CC(C)(C)C4)c(Cl)cn2)CC1 ?
50

Proceed to COCCN[C@H]1CC[C@H](NC(=O)Nc2cc(-c3cnn4c3CC(C)(C)C4)c(Cl)cn2)CC1
59

Now for the molecule whose inhibition at 0.1 µM we want.
I'd like to know its inhibition at 0.1 µM. The molecule in question is COCCN[C@H]1CC[C@H](NC(=O)Nc2cc(-c3ccc(F)cc3OC)ccn2)CC1
-2.6

* * *

# System: Pfeiffer
# Assay explanation: Tumor cell proliferation inhibition in vitro
# Format: cell-based
# Condition label: Homo sapiens, Pfeiffer; proliferation
Quantity measured: IC50 (nM)
Value expressed in nM; do not type the unit.

Looking for the measured IC50 of CC(=O)N[C@@H]1CCC[C@H](C(=O)Nc2cc(-c3cnn4c3CC(C)(C)C4)c(Cl)cn2)C1 [AZD4573, reference compound] , can you help?
2.43

---
Any idea what its IC50 is? The compound is CC(=O)N[C@H]1CC[C@H](NC(=O)Nc2cc(-c3cnn4c3CC(C)(C)C4)c(Cl)cn2)CC1
0.052

* * *

# Target system: T1, Recombinant human CDK9/cyclin T1 (Homo sapiens, UniProt P50750)
# T1 construct: purchased Carna bioscience 04-110
# T1 sequence (P50750 whole entry): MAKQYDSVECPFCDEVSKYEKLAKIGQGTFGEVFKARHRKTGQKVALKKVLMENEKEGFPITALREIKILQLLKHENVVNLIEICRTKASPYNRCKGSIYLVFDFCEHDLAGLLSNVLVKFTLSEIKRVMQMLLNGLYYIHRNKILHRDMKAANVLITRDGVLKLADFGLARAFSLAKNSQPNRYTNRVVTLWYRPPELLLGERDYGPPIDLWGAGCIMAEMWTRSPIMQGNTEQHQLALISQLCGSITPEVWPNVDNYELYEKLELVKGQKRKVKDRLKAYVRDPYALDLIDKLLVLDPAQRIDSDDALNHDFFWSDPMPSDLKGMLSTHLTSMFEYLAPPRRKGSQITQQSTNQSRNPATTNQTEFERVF
# T1 sequence (O60563 whole entry partner): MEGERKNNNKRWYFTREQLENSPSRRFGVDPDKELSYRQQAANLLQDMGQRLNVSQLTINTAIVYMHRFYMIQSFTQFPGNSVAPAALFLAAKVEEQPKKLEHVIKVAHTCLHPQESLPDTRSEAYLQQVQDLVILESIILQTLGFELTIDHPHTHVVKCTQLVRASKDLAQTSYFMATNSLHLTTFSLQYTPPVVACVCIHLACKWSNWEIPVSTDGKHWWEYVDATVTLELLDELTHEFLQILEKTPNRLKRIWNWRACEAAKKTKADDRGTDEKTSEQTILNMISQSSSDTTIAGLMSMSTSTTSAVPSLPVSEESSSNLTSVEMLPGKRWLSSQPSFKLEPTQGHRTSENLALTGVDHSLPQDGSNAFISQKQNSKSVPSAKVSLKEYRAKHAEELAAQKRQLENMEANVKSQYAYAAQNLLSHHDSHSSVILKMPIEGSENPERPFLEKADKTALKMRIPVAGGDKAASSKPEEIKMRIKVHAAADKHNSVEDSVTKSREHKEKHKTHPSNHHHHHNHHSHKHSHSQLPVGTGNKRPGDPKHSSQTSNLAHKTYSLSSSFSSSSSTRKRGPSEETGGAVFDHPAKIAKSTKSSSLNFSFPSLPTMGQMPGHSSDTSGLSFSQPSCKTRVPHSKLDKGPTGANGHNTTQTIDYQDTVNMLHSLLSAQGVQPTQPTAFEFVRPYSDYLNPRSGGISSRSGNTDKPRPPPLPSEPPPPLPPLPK
# Assay explanation: CDK9 enzyme inhibitory activity (ADP-Glo kinase assay)
# Type: biochemical
# Condition label: CDK9 enzyme activity; compound 10 nM; average of two independent repeats; read-out: Inhibition rate at different concentrations (%) 10 nM
# binarize inhibition at 0.01 µM: threshold 40% inclusive, high side met, low side not met

Consider the following illustrative entries.
Decide: inhibition at 0.01 µM of CC(C)c1c2cc(-c3ccnc(NC(=O)NC4CCC(N)CC4)c3)ccc2nn1C (stereo not shown) >= 40%?
not met

What would you report for COc1cc(F)ccc1-c1cc(NC(=O)NC2CCC(NC(=O)OC(C)(C)C)CC2)ncn1 (stereo not shown) ?
not met

Check CC(=O)N[C@H]1CC[C@H](NC(=O)Nc2cc(-c3cnn4c3CC(C)(C)C4)c(Cl)cn2)C1 (stereo in doubt) too.
met

// repeat for COc1cc(F)ccc1-c1ccnc(NC(=O)N[C@H]2CC[C@H](N)CC2)c1 and report
met

How about this compound: CC(C)NC1CCC(NC(=O)Nc2cc(-c3cnn4c3CC(C)(C)C4)c(Cl)cn2)CC1 (stereo not shown)
met

# iterate: CN(C)CCNC1CCC(NC(=O)Nc2cc(-c3cnn4c3CC(C)(C)C4)c(Cl)cn2)CC1 (stereo not shown)
met

Continuing:
Is it the case that CC1(C)Cc2c(-c3cc(NC(=O)NCCCNC(=O)OC(C)(C)C)ncc3Cl)cnn2C1 has inhibition at 0.01 µM reaching or exceeding 40%?
not met
